# Test system: SK-MEL-5 melanoma
# measurement_protocol: NCI-60 one-dose screen, 48 h
# conditions: 10 µM unless noted
About 83,000 compounds went through this panel and 20% of them were active in at least one assay; those are over-represented in the sample as a whole. Activity calls are given as the source filed them. Rule for the calls: active = growth percent below 10; inactive = the rest.
Choose one outcome from this list and give only that: active, inactive

Use the examples below as a reference point.
| molecule | assayed_target | label |
| --- | --- | --- |
| Cc1cc(O)cc(-c2c(-c3ccnc(-c4cccnc4)c3)cnn2C)c1 | SK-MEL-5 melanoma | inactive |
| CC(=O)CC1CCCC1c1ccc2ccccc2c1 (configuration not stated) | SK-MEL-5 melanoma | inactive |
| Cc1cccc(C)c1N1C(c2ccccc2)=NNC12C=CC(=O)c1c(O)cccc12 (configuration not stated) | SK-MEL-5 melanoma | active |

Could you please tell me the result logged for COC(=O)CNC(=O)[C@@H](OC)[C@@H]1Cc2cc3cc(OC4CC(OC5CC(O)C(O)C(C)O5)C(O)C(C)O4)c(C)c(O)c3c(O)c2C(=O)[C@H]1OC1CC(OC2CC(OC3CC(C)(O)C(O)C(C)O3)C(O)C(C)O2)C(O)C(C)O1 (some centres not stated) in this assay? active

Could you please tell me the result logged for N#Cc1c(-c2ccc(Cl)cc2)csc1NC(=O)Nc1cccc(C(F)(F)F)c1 in this assay? inactive
